Values were extracted from paper PMC8452690.

- target.or.test.system: DCLK1-FL1Δ WT (Homo sapiens, UniProt O15075)
- Sequence (O15075 50-686, stated change not applied): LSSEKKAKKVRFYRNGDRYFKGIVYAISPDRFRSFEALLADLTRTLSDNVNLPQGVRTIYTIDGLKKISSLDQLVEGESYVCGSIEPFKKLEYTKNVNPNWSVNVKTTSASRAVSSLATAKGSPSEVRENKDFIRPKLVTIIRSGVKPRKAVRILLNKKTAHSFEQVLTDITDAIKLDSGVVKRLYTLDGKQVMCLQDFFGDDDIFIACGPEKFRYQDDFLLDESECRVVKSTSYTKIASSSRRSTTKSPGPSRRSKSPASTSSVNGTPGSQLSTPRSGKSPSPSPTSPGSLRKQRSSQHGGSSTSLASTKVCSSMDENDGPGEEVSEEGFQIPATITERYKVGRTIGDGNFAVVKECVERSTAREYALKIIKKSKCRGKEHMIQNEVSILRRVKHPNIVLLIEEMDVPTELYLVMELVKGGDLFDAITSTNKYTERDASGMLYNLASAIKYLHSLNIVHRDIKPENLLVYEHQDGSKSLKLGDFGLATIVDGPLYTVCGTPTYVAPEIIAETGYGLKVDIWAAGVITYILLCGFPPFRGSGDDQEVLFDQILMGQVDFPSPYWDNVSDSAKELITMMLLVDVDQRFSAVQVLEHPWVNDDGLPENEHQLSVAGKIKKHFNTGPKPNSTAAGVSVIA
- method: SPR binding to immobilised DCLK1-FL1Δ WT (phosphorylated)
- measurement.parameters: KD, kinetic fitting (1:1 binding model), SPR, 18 °C, DCLK1 FL1Δ WT immobilised; mean ± SEM
recorded.endpoint: Kd (nM)

> print(dat)
                              record.smiles  experimental.value
1  CCN1C(=O)c2ccccc2N(C)c2nc(Nc3ccc(N4CCN(C)CC4)cc3OC)ncc21                  12
2  COc1cc(N2CCN(C)CC2)ccc1Nc1ncc2c(n1)N(C)c1ccccc1C(=O)N2C                 7.5
